Target: Acetylcholinesterase (Electrophorus electricus, UniProt O42275)
Sequence (O42275 whole entry): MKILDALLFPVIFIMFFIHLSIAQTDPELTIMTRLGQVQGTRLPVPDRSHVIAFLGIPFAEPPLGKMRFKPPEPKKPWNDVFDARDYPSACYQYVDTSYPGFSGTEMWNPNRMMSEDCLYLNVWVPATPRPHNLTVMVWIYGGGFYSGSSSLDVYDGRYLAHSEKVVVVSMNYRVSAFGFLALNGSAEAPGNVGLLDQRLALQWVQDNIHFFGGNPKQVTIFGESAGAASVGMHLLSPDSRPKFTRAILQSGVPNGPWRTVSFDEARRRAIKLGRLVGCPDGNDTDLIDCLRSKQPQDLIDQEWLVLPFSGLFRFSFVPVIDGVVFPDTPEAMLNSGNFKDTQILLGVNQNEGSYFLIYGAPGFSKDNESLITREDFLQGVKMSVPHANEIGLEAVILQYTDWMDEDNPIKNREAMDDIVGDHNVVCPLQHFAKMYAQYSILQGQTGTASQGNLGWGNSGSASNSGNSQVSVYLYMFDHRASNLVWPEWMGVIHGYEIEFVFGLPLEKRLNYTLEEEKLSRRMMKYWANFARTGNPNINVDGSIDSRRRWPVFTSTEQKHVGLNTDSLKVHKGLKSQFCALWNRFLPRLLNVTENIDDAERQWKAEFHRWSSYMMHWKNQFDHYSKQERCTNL
pIC50: −log10 of the molar value.

- compound: "O[Si](O)(O)C1CCCCC1 [CYCLOHEXYLSILANETRIOL]"
  assaySystem: "Acetylcholinesterase (Electrophorus electricus, UniProt O42275)"
  pIC50: 3.92
